Ref: patent US20260132197A1

Measured kon, listed per entry.
biological target: T1, Human CD47-C33G (human, UniProt Q08722 19-135); assay: SPR, IgG captured, CD47 in flow; exp 2;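 also: IgG from HEK293 cell supernatants tested by SPR on a BIAcore T200, C33G mutein prevents IgV homodimers for monovalent affinity, KD derived from association and dissociation rates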
T1 construct: also called CD47 mutein with C33G mutation
T1 sequence (Q08722 19-135 C33G limits assumed): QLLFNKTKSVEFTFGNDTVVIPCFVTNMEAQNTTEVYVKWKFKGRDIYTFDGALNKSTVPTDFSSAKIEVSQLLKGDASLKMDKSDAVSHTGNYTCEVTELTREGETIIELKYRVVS
Write the answer as a number in M⁻¹ s⁻¹, unit excluded.

Please review the following examples before continuing.
binder="108VH5 / 108VL1.M5 (antibody, human IgG4 S228P, kappa, V domains shown, Full-length IgG4 (S228P), kappa; also called VH5 VL1.M5) VH: EVQLVQSGAEVKKPGASVKVSCKASGYSFTHHWIHWVRQAPGQGLEWMGMIDPSDSETRLSQKFKDRVTMTRDTSTSTVYMELSSLRSEDTAVYYCARLGRYYFDYWGQGTLVTVSS VL: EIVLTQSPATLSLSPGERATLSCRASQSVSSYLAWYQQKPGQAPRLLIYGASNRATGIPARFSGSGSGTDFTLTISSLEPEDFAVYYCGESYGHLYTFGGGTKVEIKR" value_type=kon val=310000
binder="108VH5.M12 / 108VL1.M5 (antibody, human IgG4 S228P, kappa, V domains shown, Full-length IgG4 (S228P), kappa; also called VH5.M12 VL1.M5) VH: EVQLVQSGAEVKKPGASVKVSCKASGYTFTHHWMHWVRQAPGQGLEWMGMIDASDSETRYAQKFQGRVTMTRDTSTSTVYMELSSLRSEDTAVYYCARLGRYYFDYWGQGTLVTVSS VL: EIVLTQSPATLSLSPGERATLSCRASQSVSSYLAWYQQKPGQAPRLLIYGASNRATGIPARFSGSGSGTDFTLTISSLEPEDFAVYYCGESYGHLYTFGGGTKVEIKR" value_type=kon val=280000

Next, consider the following binder.
Inquiry: Fill in the blank: the reported kon of 108VH5.M10 / 108VL1.M5 (antibody, human IgG4 S228P, kappa, V domains shown, Full-length IgG4 (S228P), kappa; also called VH5.M10 VL1.M5) VH: EVQLVQSGAEVKKPGASVKVSCKASGYTFTHHWIHWVRQAPGQGLEWMGMIDASDSETRYAQKFQGRVTMTRDTSTSTVYMELSSLRSEDTAVYYCARLGRYYFDYWGQGTLVTVSS VL: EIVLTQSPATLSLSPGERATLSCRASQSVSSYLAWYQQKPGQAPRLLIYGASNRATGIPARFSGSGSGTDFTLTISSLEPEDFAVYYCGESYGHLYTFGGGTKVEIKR is ____.
Reply text: 250000
